Target: GST-Aq-NF-kB (Amphimedon queenslandica, UniProt A9Y5G7 2-389)
Sequence: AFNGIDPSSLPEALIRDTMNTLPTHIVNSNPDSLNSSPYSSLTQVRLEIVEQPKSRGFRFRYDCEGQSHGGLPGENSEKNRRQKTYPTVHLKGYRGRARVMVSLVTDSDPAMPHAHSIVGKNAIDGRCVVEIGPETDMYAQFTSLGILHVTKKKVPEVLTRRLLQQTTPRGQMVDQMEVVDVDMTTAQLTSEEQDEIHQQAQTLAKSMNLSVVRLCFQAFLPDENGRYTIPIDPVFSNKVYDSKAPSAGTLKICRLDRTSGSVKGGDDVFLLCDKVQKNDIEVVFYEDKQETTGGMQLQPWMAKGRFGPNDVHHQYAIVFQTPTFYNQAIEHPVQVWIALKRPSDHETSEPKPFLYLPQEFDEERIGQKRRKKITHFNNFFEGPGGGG
Assay: protein-binding microarray (PBM); PBM: ~300 nM protein, 6 mM HEPES pH 7.8, 80 mM KCl, 0.5 mM EDTA, 0.5 mM EGTA, 6% glycerol, 35 ng/ul poly-dIdC, 1% milk, 1 h, room temperature; Ap Aiptasia and Nv Nematostella (sea anemones) / Co Capsaspora / Aq Amphimedon (sponge) / Dm Drosophila / Hu human; RHD is the Rel homology domain; high values mean tight binding
Details: dsDNA, one strand shown
Response field label: string, one of t (binding signal strictly below 5 z-score) or f.

sequence_chain	group
CCGATTAACATCAAAGGAATTTCTGATGTTAATCGGGTCTTGATTCGCTTGACGCTGCTG	t
CCGATTAACATCAGGGGAGACCCTGATGTTAATCGGGTCTTGATTCGCTTGACGCTGCTG	f
CCGATTAACATCAGTTTGGGAAATGATGTTAATCGGGTCTTGATTCGCTTGACGCTGCTG	t
CCGATTAACATCATCAGTTTCCCTGATGTTAATCGGGTCTTGATTCGCTTGACGCTGCTG	t
CCGATTAACATCACGGGAAGTACTGATGTTAATCGGGTCTTGATTCGCTTGACGCTGCTG	t
CCGATTAACATCAAGCCCCCCCATGATGTTAATCGGGTCTTGATTCGCTTGACGCTGCTG	t
CCGATTAACATCAAGGGGGATATTGATGTTAATCGGGTCTTGATTCGCTTGACGCTGCTG	f
CCGATTAACATCACGGATATTCCTGATGTTAATCGGGTCTTGATTCGCTTGACGCTGCTG	t
CCGATTAACATCAAGTTTCCCCCTGATGTTAATCGGGTCTTGATTCGCTTGACGCTGCTG	f
CCGATTAACATCAACCATTCCCCTGATGTTAATCGGGTCTTGATTCGCTTGACGCTGCTG	t
CCGATTAACATCAAACATTCCCCTGATGTTAATCGGGTCTTGATTCGCTTGACGCTGCTG	f
CCGATTAACATCAAGGGAATCCCTGATGTTAATCGGGTCTTGATTCGCTTGACGCTGCTG	f
CCGATTAACATCAGGGAAAATGATGATGTTAATCGGGTCTTGATTCGCTTGACGCTGCTG	t
CCGATTAACATCACGGGGGGGAATGATGTTAATCGGGTCTTGATTCGCTTGACGCTGCTG	f
CCGATTAACATCAGGACTTTACATGATGTTAATCGGGTCTTGATTCGCTTGACGCTGCTG	t
CCGATTAACATCAAGGAGTTCCCTGATGTTAATCGGGTCTTGATTCGCTTGACGCTGCTG	t
CCGATTAACATCAAACATTCCCATGATGTTAATCGGGTCTTGATTCGCTTGACGCTGCTG	t
CCGATTAACATCAGCTCCCCCCCTGATGTTAATCGGGTCTTGATTCGCTTGACGCTGCTG	t
CCGATTAACATCAGAAATACCCATGATGTTAATCGGGTCTTGATTCGCTTGACGCTGCTG	t
CCGATTAACATCAGGGGAAGGTATGATGTTAATCGGGTCTTGATTCGCTTGACGCTGCTG	t
CCGATTAACATCAGGGAGATACCTGATGTTAATCGGGTCTTGATTCGCTTGACGCTGCTG	f
CCGATTAACATCAAGGGGGTACCTGATGTTAATCGGGTCTTGATTCGCTTGACGCTGCTG	t
CCGATTAACATCAGGAATGCCCCTGATGTTAATCGGGTCTTGATTCGCTTGACGCTGCTG	f
CCGATTAACATCAGGGAATTGTATGATGTTAATCGGGTCTTGATTCGCTTGACGCTGCTG	t
CCGATTAACATCAAGGATTTTCCTGATGTTAATCGGGTCTTGATTCGCTTGACGCTGCTG	t
CCGATTAACATCACTTTTTTCCCTGATGTTAATCGGGTCTTGATTCGCTTGACGCTGCTG	t
CCGATTAACATCAGGGGGAACCCTGATGTTAATCGGGTCTTGATTCGCTTGACGCTGCTG	f
CCGATTAACATCAGGATTTACCCTGATGTTAATCGGGTCTTGATTCGCTTGACGCTGCTG	f
CCGATTAACATCACTTCGGGAAATGATGTTAATCGGGTCTTGATTCGCTTGACGCTGCTG	t
CCGATTAACATCAAGACTTCCCCTGATGTTAATCGGGTCTTGATTCGCTTGACGCTGCTG	f
CCGATTAACATCAGGGGATATACTGATGTTAATCGGGTCTTGATTCGCTTGACGCTGCTG	t
CCGATTAACATCAGGAAACTTCCTGATGTTAATCGGGTCTTGATTCGCTTGACGCTGCTG	t
CCGATTAACATCACTATATCCCCTGATGTTAATCGGGTCTTGATTCGCTTGACGCTGCTG	t
CCGATTAACATCAGAATCTCCCATGATGTTAATCGGGTCTTGATTCGCTTGACGCTGCTG	t
CCGATTAACATCACGGGTTTTTCTGATGTTAATCGGGTCTTGATTCGCTTGACGCTGCTG	t
